Provenance of the data: patent US12421277B2

Experiment: Blood absorption of YLP in rats, UPLC-MS/MS
Conditions: rat, in vivo, po; SD rats, intragastric 100 mg/kg bw, at 90 min; read-out: maximum content of YLP in blood
Where a SMILES comes first, the peptide text is derived from it.

# COMPOUND, Cmax [ng/mL]
data = [
    ("CC(C)C[C@H](NC(=O)[C@@H](N)Cc1ccc(O)cc1)C(=O)N1CCC[C@H]1C(=O)O [YLP] (H-Tyr-Leu-Pro-OH; N-terminus and C-terminus assumed)", 1.31),
]

----------
Experiment: Blood absorption of YLP in rats, UPLC-MS/MS
Details: rat, in vivo, po; SD rats, intragastric 100 mg/kg bw; read-out: time of maximum content in blood (converted)
Where a SMILES comes first, the peptide text is derived from it.
OBSERVABLE: Tmax

# COMPOUND, OBSERVABLE, MEASUREMENT
records = [
    ("CC(C)C[C@H](NC(=O)[C@@H](N)Cc1ccc(O)cc1)C(=O)N1CCC[C@H]1C(=O)O [YLP] (H-Tyr-Leu-Pro-OH; N-terminus and C-terminus assumed)", "Tmax", "1.5 h"),
]
